Target: T1, biotin-labeled mouse ADM (mouse, not fully specified; biotin label (named mouse ADM-C-biotin in Example 1.4; position of the biotin not stated for the other lots))
T1 construct: Synthetic peptide; also called mouse ADM-C-biotin; mADM-Biotin
T1 peptide: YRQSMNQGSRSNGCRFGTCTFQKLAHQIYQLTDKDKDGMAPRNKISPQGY
Assay: flow staining of yeast-displayed Fab at graded antigen concentrations
value-type: EC50 (nM)
Answer format: numeric, nM implied, no suffix.

Some solved cases for reference:
Query :: Need EC50 of Ab2004.Am37 (Fab displayed on yeast) (Fab, V domains shown, Yeast monoclonal colony of library JYYDL227 (Fab display)) VH: QVQLVQSGAEVKKPGASVKVSCKASGYTFTSYGISWVRQAPGQGLEWMGWISPYTGKTNYAQKLQGRVTMTRDTSTSTAYMELRSLRSDDTAVYYCAREGRWGGSFNIWGQGTMVTVSS VL: DIQMTQSPSSLSASVGDRVTITCRASQGISSYLAWYQQKPGKAPKLLIYDVSILDAGVPSRFSGSGSGTDFTFTISSLQPEDIATYYCQQYDNLPLTFGGGTKVEIK , thanks.
Result :: 6.74

Query :: Ab2004.Am33 (Fab displayed on yeast) (Fab, V domains shown, Yeast monoclonal colony of library JYYDL227 (Fab display)) VH: QVQLVQSGAEVKKPGASVKVSCKASGYTFTSYGISWVRQAPGQGLEWMGWISPYSGNTNYAQKLQGRVTMTRDTSTSTAYMELRSLRSDDTAVYYCAREGRWGGSFNIWGQGTMVTVSS VL: DIQMTQSPSSLSASVGDRVTITCRASEGISEYLAWYQQKPGKAPKLLIYDASNLETGVPSRFSGSGSGTDFTFTISSLQPEDIATYYCQQYDNLPLTFGGGTKVEIK ?
Result :: 15

Okay, now this binder:
Query :: Which EC50 is listed for Ab2004.Am39 (Fab displayed on yeast) (Fab, V domains shown, Yeast monoclonal colony of library JYYDL227 (Fab display)) VH: QVQLVQSGAEVKKPGASVKVSCKASGYTFTHYGIAWVRQAPGQGLEWMGWISAYQGNTNYAQKLQGRVTMTRDTSTSTAYMELRSLRSDDTAVYYCAREGRWGGSFNIWGQGTMVTVSS VL: DIQMTQSPSSLSASVGDRVTITCRASQGISSYLAWYQQKPGKAPKLLIYDASNLETGVPSRFSGSGSGTDFTFTISSLQPEDIATYYCQQYDDLDLTFGGGTKVEIK ?
Result :: 4.23
